Reference source for all entries: patent US20250042957A1

Provide the recorded KD ratio (Ligand1/Ligand2) for the entries that follow.
# assay target: T1, CD3-specific binding domain (SEQ ID NO: 3) (biotinylated when used as immobilized SPR ligand (site not stated))
# T1 construct: also called α-CD3 DARPin
# T1 chain: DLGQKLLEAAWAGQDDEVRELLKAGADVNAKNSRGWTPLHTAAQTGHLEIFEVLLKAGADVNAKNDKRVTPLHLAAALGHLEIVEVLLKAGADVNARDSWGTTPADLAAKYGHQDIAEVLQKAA
# method summary: SPR; KD on CD3-specific binding domain (Ligand1) divided by KD on VEGF165 (Ligand2)
Please reply with the value in numeric form only.

Which KD ratio (Ligand1/Ligand2) is listed for 2-in-1 DARPin 13 (SEQ ID NO: 8) (designed binder, N3C mono-domain; purified by its His-tag) DLDKKLLEAARAGQDDEVRILLKAGADVNAKDSTGWTPLHLAAPWGHPEIVEVLLKAGADVNAKDFYGWTPLHLAAAAGHLEIVEVLLKAGADVNAKDWLGWTPLHLAASHGHLEIVEVLLKAGADVNAQDKSGKTPADLAARAGHQDIAEVLQKAA ?
14.2

Any idea what its KD ratio (Ligand1/Ligand2) is? The binder is 2-in-1 DARPin 20 (SEQ ID NO: 13) (designed binder, N4C mono-domain; purified by its His-tag) DLDKKLLEAARAGQDDEVRILLKAGADVNAKDSTGWTPLHLAAPWGHPEIVEVLLKAGADVNAKDFQGWTPLHLAAAAGHLEIVEVLLKAGADVNAKDVYGWTPLHLAAAAGHLEIVEVLLKAGADVNAKDWLGWTPLHLAASHGHLEIVEVLLKAGADVNAQDKSGKTPADLAARAGHQDIAEVLQKAA
2.09

# get_value(readout='KD ratio (Ligand1/Ligand2)', item= 2-in-1 DARPin 12 (SEQ ID NO: 7) (designed binder, N3C mono-domain; purified by its His-tag) DLDKKLLEAARAGQDDEVRILLKAGADVNAKDSTGWTPLHLAAPWGHPEIVEVLLKAGADVNAKDVYGWTPLHLAAAAGHLEIVEVLLKAGADVNAKDWLGWTPLHLAASHGHLEIVEVLLKAGADVNAQDKSGKTPADLAARAGHQDIAEVLQKAA )
0.195
